Before we begin, note that these pIC50 values for ROCK2 (Homo sapiens) originate from several publications.
pIC50: −log10 of the molar value.

molecule	tested_target	observed_property	result
COc1cc(N2CCC3(CCN(C(=O)c4ccc(CN5CCCC5)cc4)CC3)C2=O)ccc1-c1cn[nH]c1	ROCK2 (Homo sapiens)	pIC50	7.77

// pIC50 (ROCK2 (Homo sapiens)) for O=C(NC1CC2(C1)CC(c1n[nH]c(=O)c3ccccc13)C2)c1cnn2cc(OCCN3CCC3)ccc12 (stereo not shown) = 8.30 to 8.70

// pIC50 (ROCK2 (Homo sapiens)) for COc1nc(-n2ccn(Cc3cccnc3)c2=O)ccc1-c1cn[nH]c1 = 7.70 to 8.68

// pIC50 (ROCK2 (Homo sapiens)) for O=C1N(c2ccc(-c3cn[nH]c3)cc2)CC(CO)[C@]12Cc1ccccc1N2 (stereo partly shown) = 6.52 to 7.52
